# assay info: Example 7 pharmacokinetics assay for PKPD study (plasma, tumor, liver)
# Format: in vivo, BALB/c nude mice
# setup conditions: mouse, plasma, po; 10 mg/kg, p.o., single dose; 12 h; read-out: Concentration in Plasma (mean ± SEM)
Measured concentration at 12 h, listed per entry.
Give the value, in units of ng/mL, as a plain number.

The compound listed as CCN(C)S(=O)(=O)Nc1ccc(F)c(Oc2ccc3ncn(C4CC5(CCN(C6CC7(C6)CN(c6cc8c(cc6F)c(N6CCC(=O)NC6=O)nn8C)C7)CC5)C4)c(=O)c3c2)c1C#N (stereo not shown) shows concentration at 12 h equal to 2530

get_value(item= CCN(C)S(=O)(=O)Nc1ccc(F)c(Oc2ccc3ncc(C4CC5(CCN(C6CCC(c7cc8c(cc7F)c(N7CCC(=O)NC7=O)nn8C)CC6)CC5)C4)nc3c2)c1C#N (single isomer, unassigned) , readout=concentration at 12 h) returns 155

// concentration at 12 h lookup, compound = "CCN(C)S(=O)(=O)Nc1ccc(F)c(Oc2ccc3ncn(C4CC5(CCN(C6CCN(c7cc8c(cc7F)c(N7CCC(=O)NC7=O)nn8C)CC6)CC5)C4)c(=O)c3c2)c1C#N" , result: 111

In plain terms, CCN(C)S(=O)(=O)Nc1ccc(F)c(Oc2ccc3ncc(OCC4CCN(C5CCC(c6cc7c(cc6F)c(N6CCC(=O)NC6=O)nn7C)CC5)CC4)nc3c2)c1C#N (single isomer, unassigned) has a documented concentration at 12 h of 985

###

# assay info: Pharmacokinetics after 21 days dosing in the efficacy study (plasma, tumor and brain concentrations; plasma AUC at steady state), Example 14
# Type: in vivo, female BALB/c nude mice
# setup conditions: mouse, plasma, po; 100 mg/kg p.o. QD x 21 days; 24 h; read-out: Concentration in Plasma
measured endpoint: concentration at 24 h (ng/mL)
Record the value in ng/mL, omitting the unit from your answer.

Consider CC(C)(C)c1nc(-c2cccc(NS(=O)(=O)c3c(F)cccc3F)c2F)c(-c2ccnc(N)n2)s1 [Dabrafenib, dabrafenib, reference compound] . Its measured concentration at 24 h is 2.27

###

# subject of test: BRAF V600E (Homo sapiens, UniProt P15056+Q96SW2, V600E)
# Construct: knock-in of the HiBiT tag to the endogenous BRAF V600E locus; host or cells: A375.10 (A375 clonal line, CRISPR HiBiT knock-in at the endogenous BRAF V600E locus)
# Sequence (P15056 whole entry V600E): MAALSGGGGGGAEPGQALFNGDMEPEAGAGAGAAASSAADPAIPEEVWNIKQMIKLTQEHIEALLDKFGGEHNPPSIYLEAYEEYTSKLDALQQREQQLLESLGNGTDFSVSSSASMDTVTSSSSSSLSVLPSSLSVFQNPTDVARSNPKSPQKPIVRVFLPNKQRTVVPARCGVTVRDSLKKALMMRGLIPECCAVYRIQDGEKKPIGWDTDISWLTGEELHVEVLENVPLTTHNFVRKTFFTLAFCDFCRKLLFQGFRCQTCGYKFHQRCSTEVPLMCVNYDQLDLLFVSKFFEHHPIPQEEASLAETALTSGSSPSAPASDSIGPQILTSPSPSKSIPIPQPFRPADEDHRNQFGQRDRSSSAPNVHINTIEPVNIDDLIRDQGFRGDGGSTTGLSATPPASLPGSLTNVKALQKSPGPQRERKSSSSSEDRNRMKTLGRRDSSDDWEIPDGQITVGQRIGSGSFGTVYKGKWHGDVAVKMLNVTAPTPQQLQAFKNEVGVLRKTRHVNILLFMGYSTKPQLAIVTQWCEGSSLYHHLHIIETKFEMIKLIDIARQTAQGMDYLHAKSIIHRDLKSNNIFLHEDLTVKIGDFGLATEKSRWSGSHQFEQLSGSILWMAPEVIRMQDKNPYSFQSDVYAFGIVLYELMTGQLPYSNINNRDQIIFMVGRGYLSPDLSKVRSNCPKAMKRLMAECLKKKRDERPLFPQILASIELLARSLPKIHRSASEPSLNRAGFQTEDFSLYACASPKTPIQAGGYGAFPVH
# Sequence (Q96SW2 whole entry): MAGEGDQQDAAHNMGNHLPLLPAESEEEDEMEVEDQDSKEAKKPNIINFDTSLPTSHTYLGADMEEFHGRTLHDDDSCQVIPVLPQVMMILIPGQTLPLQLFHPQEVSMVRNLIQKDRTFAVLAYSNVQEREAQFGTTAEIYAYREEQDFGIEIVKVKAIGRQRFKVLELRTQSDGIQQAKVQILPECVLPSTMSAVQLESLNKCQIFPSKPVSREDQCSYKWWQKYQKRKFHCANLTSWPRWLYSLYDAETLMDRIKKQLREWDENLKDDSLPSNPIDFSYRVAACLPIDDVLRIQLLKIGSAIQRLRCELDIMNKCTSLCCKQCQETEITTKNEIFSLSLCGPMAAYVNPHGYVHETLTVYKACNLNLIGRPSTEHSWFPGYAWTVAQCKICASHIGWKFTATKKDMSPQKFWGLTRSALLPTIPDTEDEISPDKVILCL
# Sequence (Q16531 whole entry partner): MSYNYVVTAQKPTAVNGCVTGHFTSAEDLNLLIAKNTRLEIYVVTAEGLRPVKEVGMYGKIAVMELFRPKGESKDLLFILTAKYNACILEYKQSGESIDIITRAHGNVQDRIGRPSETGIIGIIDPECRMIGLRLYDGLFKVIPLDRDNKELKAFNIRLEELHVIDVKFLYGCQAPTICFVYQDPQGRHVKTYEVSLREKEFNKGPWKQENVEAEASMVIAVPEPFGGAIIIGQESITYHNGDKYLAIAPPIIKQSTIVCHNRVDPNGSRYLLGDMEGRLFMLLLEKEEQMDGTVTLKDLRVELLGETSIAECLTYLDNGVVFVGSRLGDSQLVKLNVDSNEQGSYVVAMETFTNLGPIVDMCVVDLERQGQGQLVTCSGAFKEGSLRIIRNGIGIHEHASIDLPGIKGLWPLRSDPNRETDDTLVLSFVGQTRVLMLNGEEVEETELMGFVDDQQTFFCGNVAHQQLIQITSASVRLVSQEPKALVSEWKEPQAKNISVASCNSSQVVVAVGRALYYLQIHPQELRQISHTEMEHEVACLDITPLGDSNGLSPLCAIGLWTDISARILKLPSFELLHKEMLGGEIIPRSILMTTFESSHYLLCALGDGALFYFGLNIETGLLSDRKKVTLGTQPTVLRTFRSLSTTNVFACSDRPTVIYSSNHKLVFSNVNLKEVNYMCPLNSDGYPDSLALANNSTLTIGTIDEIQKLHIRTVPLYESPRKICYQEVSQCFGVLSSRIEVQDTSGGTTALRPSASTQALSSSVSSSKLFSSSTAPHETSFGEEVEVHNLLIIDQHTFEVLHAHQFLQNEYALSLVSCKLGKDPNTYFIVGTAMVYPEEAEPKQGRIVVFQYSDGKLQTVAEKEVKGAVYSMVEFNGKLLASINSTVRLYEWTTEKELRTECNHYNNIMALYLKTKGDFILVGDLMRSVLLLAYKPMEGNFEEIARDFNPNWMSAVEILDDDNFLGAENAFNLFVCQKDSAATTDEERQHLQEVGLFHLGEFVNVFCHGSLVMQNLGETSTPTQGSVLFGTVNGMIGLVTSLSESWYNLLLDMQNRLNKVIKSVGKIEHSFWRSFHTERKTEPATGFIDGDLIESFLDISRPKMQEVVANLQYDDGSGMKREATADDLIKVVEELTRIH
# assay info: BRAF V600E HiBiT Degradation Assay
# Format: cell-based
# setup conditions: A375.10 cells, BRAF V600E, 2 hours; residual protein remaining; read-out: HiBiT-Degradation A375.10 BRAF 2 hours Emax
Catalogue of Emax values

Example entries and their recorded answers appear below.
INSERT INTO measurements (molecule, reported) VALUES
  ('CCN(C)S(=O)(=O)Nc1ccc(F)c(Oc2ccc3ncn([C@@H]4COC5(CCN(C6CCC(c7ccc(NC8CCC(=O)NC8=O)cc7F)CC6)CC5)C4)c(=O)c3c2F)c1C#N (single isomer, unassigned)', '< 50%'),
  ('CCN(C)S(=O)(=O)Nc1ccc(F)c(Oc2ccc3ncc(CC4CCN(C5CCC(c6ccc(NC7CCC(=O)NC7=O)cc6F)CC5)CC4)nc3c2)c1C#N (single isomer, unassigned)', '50 to 90%');

Looking up CCN(C)S(=O)(=O)Nc1ccc(F)c(Oc2ccc3ncc(OCC4CCN(C5CCC(c6ccc(NC7CCC(=O)NC7=O)cc6F)CC5)CC4)nc3c2)c1C#N (single isomer, unassigned) , I found its Emax recorded as 50 to 90%

# molecule CCN(C)S(=O)(=O)Nc1ccc(F)c(Oc2ccc3ncn(C4CC5(CC(N6CC[C@@H](c7cc8c(cc7F)c(N7CCC(=O)NC7=O)nn8C)C(F)(F)C6)C5)C4)c(=O)c3c2)c1C#N (some centres unmarked) ; its Emax = < 50%

So, "CCN(C)S(=O)(=O)Nc1ccc(F)c(Oc2ccc3ncn(CC4CCN(C5CCN(c6cc7c(cc6F)c(N6CCC(=O)NC6=O)nn7C)CC5)CC4)c(=O)c3c2)c1C#N" ? Its Emax was < 50%

###

# System: A375 human melanoma xenografts
# assay info: Example 7 efficacy study in A375 human melanoma xenografts (tumor volume, T/C, TGI)
# Type: in vivo, BALB/c nude mice
# setup conditions: 10 mg/kg, p.o., BID × 14 days; day 10
measured endpoint: Tumor Volume (mean ± SEM) (mm^3)
Write the answer as a number in mm^3, unit excluded.

Please review the entries below; each comes with its answer.
INSERT INTO results (compound, reported) VALUES
  ('CCN(C)S(=O)(=O)Nc1ccc(F)c(Oc2ccc3ncc(C4CC5(CCN(C6CCC(c7cc8c(cc7F)c(N7CCC(=O)NC7=O)nn8C)CC6)CC5)C4)nc3c2)c1C#N (single isomer, unassigned)', 151),
  ('CCN(C)S(=O)(=O)Nc1ccc(F)c(Oc2ccc3ncc(OCC4CCN(C5CCC(c6cc7c(cc6F)c(N6CCC(=O)NC6=O)nn7C)CC5)CC4)nc3c2)c1C#N (single isomer, unassigned)', 117),
  ('CCN(C)S(=O)(=O)Nc1ccc(F)c(Oc2ccc3ncn(C4CC5(CCN(C6CC7(C6)CN(c6cc8c(cc6F)c(N6CCC(=O)NC6=O)nn8C)C7)CC5)C4)c(=O)c3c2)c1C#N (stereo not shown)', 59);

We next turn to a different compound, shown below.
What the record says about "CCN(C)S(=O)(=O)Nc1ccc(F)c(Oc2ccc3ncn(C4CC5(CCN(C6CCN(c7cc8c(cc7F)c(N7CCC(=O)NC7=O)nn8C)CC6)CC5)C4)c(=O)c3c2)c1C#N" : Tumor Volume (mean ± SEM) is 68

###

# assay info: Example 8 pharmacokinetics assay for PKPD study (plasma, tumor, liver)
# Assay type: in vivo, BALB/c nude mice
# setup conditions: mouse, tumor, po, 10 mg/kg, p.o., single dose; 24 h; read-out: Concentration in Tumor (mean ± SEM)
# Description: For the PK and PD study, agents were administered to BALB/c nude mice bearing A375 human melanoma xenografts tumors. encorafenib, Compound 8, Compound 26, Compound 38, and Compound 39 were dosed p.o. once on day 1. Encorafenib was dosed at 35 mg/kg, Compound 8, Compound 26, Compound 38, and Compound 39 were dosed at 10 mg/kg. This study was non-GLP. The plasma samples were collected at predetermined time points for PK analysis. […]
Entries and their concentration at 24 h
Show the value, then the unit it is measured in.

INSERT INTO results (compound, reported) VALUES
  ('CCN(C)S(=O)(=O)Nc1ccc(F)c(Oc2ccc3ncn(C4CC5(CCN(C6CCC(c7cc8c(cc7F)c(N7CCC(=O)NC7=O)nn8C)CC6)CC5)C4)c(=O)c3c2)c1C#N (single isomer, unassigned) [Compound 8]', '8.52 ng/g');

Continue with the compound presented below.
Looking up CCN(C)S(=O)(=O)Nc1ccc(F)c(Oc2ccc3ncn([C@H]4COC5(CCN(C6CC7(C6)CN(c6cc8c(cc6F)c(N6CCC(=O)NC6=O)nn8C)C7)CC5)C4)c(=O)c3c2)c1C#N [Compound 26] , I see its concentration at 24 h listed as 64.9 ng/g

###

# assay info: Pharmacokinetics after 21 days dosing in the efficacy study (plasma, tumor and brain concentrations; plasma AUC at steady state), Example 14
# Assay type: in vivo, female BALB/c nude mice
# setup conditions: mouse, tumor, po; 2 mg/kg p.o. TID x 21 days; 4 h; mean ± SEM; read-out: Concentration in Tumor
measured endpoint: concentration at 4 h (ng/g)
Please reply with the bare figure in ng/g and do not write the unit itself.

// sample "CCN(C)S(=O)(=O)Nc1ccc(F)c(Oc2ccc3ncn([C@H]4COC5(CCN(C6CC7(C6)CN(c6cc8c(cc6F)c(N6CCC(=O)NC6=O)nn8C)C7)CC5)C4)c(=O)c3c2)c1C#N" , its concentration at 4 h was 930

###

# assay info: Pharmacokinetics after 21 days dosing in the efficacy study (plasma, tumor and brain concentrations; plasma AUC at steady state), Example 14
# Format: in vivo, female BALB/c nude mice
# setup conditions: mouse, tumor, po; 10 mg/kg p.o. BID x 21 days; 4 h; mean ± SEM; read-out: Concentration in Tumor
measured endpoint: concentration at 4 h (ng/g)
Express it in ng/g; write the number only.

Lab book: concentration at 4 h of CCN(C)S(=O)(=O)Nc1ccc(F)c(Oc2ccc3ncn([C@H]4COC5(CCN(C6CC7(C6)CN(c6cc8c(cc6F)c(N6CCC(=O)NC6=O)nn8C)C7)CC5)C4)c(=O)c3c2)c1C#N [Compound 26] noted as 4250

###

# assay info: Pharmacokinetics after 21 days dosing in the efficacy study (plasma, tumor and brain concentrations; plasma AUC at steady state), Example 14
# Type: in vivo, female BALB/c nude mice
# setup conditions: mouse, tumor, po; 0.75 mg/kg p.o. BID x 21 days; 4 h; mean ± SEM; read-out: Concentration in Tumor
measured endpoint: concentration at 4 h (ng/g)
Dear colleague, please return just the value in ng/g, with no unit written.

The recorded concentration at 4 h for CCN(C)S(=O)(=O)Nc1ccc(F)c(Oc2ccc3ncn(C4CC5(CCN(C6CC7(C6)CN(c6cc8c(cc6F)c(N6CCC(=O)NC6=O)nn8C)C7)CC5)C4)c(=O)c3c2)c1C#N (stereo not shown) is 160
